This listing pairs compounds with measured Dmax.
# testSystem: HiBit-WIZ fusion protein (Homo sapiens, UniProt O95785+Q96SW2)
# Sequence (O95785 whole entry, the tested form may be a part): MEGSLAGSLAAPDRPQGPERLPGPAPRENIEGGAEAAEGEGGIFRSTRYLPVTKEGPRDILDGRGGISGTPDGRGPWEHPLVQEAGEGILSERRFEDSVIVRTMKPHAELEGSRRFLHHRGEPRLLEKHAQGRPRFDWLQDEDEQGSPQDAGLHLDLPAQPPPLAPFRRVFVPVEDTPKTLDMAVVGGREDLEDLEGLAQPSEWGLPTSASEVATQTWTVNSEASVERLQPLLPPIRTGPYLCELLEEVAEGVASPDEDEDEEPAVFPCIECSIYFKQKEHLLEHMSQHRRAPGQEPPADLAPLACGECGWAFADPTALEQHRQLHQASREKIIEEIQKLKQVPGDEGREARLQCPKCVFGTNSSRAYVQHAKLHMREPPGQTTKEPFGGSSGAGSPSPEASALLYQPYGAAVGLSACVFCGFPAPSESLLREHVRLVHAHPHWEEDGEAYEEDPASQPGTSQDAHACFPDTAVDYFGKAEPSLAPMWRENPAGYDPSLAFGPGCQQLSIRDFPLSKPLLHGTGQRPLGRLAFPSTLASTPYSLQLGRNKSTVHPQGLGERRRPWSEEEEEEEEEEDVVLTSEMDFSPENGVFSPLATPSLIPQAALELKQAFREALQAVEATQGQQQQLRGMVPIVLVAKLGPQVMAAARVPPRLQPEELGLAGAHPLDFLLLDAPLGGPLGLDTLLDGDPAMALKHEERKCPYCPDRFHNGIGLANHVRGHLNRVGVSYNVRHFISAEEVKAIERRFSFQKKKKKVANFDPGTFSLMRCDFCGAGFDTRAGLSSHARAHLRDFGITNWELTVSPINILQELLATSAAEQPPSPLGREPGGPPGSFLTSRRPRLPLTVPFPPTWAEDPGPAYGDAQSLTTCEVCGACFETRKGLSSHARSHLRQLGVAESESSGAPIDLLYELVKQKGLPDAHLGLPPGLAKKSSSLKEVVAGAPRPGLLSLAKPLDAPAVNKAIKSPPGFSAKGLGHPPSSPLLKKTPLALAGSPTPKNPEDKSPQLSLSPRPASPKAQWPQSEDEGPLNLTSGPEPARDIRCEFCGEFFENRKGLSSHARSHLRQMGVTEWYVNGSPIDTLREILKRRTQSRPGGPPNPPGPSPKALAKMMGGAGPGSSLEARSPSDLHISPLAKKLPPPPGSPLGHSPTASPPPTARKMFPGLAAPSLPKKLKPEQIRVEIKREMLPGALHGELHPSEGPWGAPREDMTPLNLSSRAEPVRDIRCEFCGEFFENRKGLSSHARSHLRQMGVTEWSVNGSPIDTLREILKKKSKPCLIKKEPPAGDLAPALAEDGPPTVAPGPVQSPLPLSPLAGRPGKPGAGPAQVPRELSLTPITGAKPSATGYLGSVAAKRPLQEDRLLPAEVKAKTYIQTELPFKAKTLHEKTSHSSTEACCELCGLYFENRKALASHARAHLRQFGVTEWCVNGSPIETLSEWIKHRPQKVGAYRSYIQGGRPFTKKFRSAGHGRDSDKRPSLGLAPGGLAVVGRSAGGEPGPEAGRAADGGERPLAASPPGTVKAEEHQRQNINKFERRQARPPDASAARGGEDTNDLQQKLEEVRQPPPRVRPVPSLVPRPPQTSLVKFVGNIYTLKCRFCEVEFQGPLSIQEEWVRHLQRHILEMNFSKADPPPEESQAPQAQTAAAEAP
# Sequence (Q96SW2 whole entry, the tested form may be a part): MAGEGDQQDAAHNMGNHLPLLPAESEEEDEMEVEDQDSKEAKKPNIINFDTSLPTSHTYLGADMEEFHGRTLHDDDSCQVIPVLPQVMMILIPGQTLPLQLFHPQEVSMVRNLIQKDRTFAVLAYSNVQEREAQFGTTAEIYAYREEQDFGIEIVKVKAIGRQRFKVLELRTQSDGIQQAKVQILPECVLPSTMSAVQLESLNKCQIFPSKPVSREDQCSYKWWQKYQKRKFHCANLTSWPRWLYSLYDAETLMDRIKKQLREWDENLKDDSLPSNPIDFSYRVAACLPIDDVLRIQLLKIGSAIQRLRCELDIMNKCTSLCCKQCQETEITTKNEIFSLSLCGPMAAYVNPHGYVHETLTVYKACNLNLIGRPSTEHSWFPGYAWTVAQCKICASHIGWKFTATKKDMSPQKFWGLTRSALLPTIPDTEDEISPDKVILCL
# Sequence (Q16531 whole entry partner, the tested form may be a part): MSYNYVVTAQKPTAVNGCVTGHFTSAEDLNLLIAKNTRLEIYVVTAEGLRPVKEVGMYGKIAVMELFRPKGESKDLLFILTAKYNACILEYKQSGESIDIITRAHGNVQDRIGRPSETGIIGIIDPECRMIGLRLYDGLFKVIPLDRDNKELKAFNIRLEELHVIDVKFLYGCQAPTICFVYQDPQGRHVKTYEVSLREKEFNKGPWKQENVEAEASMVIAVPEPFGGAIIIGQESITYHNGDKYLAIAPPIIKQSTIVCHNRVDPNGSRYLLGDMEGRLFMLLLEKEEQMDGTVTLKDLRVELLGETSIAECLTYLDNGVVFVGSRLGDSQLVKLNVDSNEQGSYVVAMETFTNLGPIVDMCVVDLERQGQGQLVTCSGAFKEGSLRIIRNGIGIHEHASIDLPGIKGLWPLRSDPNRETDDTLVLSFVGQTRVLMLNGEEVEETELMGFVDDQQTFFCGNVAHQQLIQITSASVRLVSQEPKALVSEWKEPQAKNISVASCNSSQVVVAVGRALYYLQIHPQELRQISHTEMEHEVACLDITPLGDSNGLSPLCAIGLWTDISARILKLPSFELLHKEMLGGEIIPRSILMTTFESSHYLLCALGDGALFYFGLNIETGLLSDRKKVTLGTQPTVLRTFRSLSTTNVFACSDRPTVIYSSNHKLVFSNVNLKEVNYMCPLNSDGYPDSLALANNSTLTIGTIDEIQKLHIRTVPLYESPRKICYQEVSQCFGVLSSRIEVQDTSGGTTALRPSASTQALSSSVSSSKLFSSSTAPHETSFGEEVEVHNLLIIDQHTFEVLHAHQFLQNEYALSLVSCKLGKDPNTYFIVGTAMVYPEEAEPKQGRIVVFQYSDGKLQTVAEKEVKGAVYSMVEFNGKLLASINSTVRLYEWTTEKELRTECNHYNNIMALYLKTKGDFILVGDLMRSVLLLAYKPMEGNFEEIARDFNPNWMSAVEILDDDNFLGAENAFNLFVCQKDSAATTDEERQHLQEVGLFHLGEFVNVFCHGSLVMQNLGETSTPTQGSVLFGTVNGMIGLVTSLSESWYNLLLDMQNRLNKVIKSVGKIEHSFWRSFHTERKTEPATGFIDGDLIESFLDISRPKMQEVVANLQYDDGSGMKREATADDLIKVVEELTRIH
# assayName: Quantification of WIZ protein levels in HiBit tag fusion protein assay (WIZ HiBit assay in 293T cells)
# Format: cell-based
# Parameters: dose or concentration left out as unconfirmed
# testParameters: HEK-293T, 100 minus Amax; 293T cells; read-out: % degradation of WIZ (100-Amax)
Note: unit % is implicit; provide only the numeric part.

compound: CCc1nc(C)c(CN2CCCC[C@H]2COc2ccc3c(c2)CN(C2CCC(=O)NC2=O)C3=O)[nH]1 (some centres unmarked) [Compound I-50cy]
measurementUnit: %
experimentalValue: 89

Now examine the next entry.
Incoming: Fill in the blank: the reported Dmax of O=C1CCC(N2Cc3cc(OC[C@H]4CCCCN4Cc4cnn(Cc5ccccc5)c4)ccc3C2=O)C(=O)N1 (some centres unmarked) [Compound I-50bv] is ____.
Outgoing: 99.9

The measured values listed here are drawn from patent US11566022B2.
